Origin of values: patent US20230295635

biological target: Eosinophil peroxidase (EPX) (UniProt P11678;P11678 P11678:140-250,P11678:251-715); assay: FP; PBS pH 7.4, room temperature; settings: tags: Cedarlane #342-60-0.1; untagged commercial protein; label: 5'-FAM; 3' stem loop
Sequence (P11678 140-250, chain 1 of 2): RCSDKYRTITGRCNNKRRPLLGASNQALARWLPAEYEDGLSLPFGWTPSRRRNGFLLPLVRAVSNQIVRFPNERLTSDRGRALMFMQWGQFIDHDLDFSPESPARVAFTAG
Sequence (P11678 251-715, chain 2 of 2): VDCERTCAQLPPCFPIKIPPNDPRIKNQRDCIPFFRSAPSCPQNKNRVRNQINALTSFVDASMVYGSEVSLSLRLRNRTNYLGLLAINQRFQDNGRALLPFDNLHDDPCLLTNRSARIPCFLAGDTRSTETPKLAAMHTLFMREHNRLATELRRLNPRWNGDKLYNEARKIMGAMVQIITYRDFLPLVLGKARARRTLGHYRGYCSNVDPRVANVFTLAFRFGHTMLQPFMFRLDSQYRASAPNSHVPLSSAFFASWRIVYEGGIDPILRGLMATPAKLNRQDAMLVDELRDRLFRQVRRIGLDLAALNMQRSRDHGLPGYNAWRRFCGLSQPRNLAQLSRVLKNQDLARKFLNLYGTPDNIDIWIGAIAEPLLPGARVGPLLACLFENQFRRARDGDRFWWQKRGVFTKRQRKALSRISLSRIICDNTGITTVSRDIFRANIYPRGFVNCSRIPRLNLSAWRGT
MEASURED PROPERTY: Kd (nM)
Answers are plain numbers, in nM.

Query: Any idea what its Kd is? The binder is EAP1-05 (ssDNA) DNA: ATGCCATCCTACCAACCAGGGGGACAGTGCAAAGGGGTAGGGAGGGGGCTAGGGGGGAGCTCTGAACTGG
Reply: 4.3
